Please provide measured binding signal for the entries that follow.
Biological target: POU1 (OCT1 POU domain) (human, UniProt P14859 260-458)
Sequence (P14859 260-458): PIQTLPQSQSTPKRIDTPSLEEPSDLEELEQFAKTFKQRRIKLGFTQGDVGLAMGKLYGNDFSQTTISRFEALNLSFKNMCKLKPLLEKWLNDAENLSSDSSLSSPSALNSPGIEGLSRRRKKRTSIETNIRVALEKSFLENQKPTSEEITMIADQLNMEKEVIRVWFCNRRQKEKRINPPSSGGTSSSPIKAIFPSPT
Assay: EMSA-SELEX-seq; no BOB1; 20 mM Tris-HCl pH 7.6, 140 mM NaCl, 10% glycerol, 0.5 mM EDTA, 0.05% Triton X-100, 0.1 mg/mL BSA, 0.1 mg/mL poly(dI-dC), 5 mM DTT, room temperature, 20 min; high values mean tight binding
Conditions: protein: recombinant; dsDNA, one strand shown

Hey, can you go through the list below and give me binding signal for every item?
1. AACAGAAC
2. ACCATAAG
3. AACTAAAG
4. AGCGTAAT
5. AGCGAAAA
6. AATGCAAA
7. AAGCAAAT
8. AAGCCAAT

Ans:
1. 0.0183 % of ANNNNAAN 8-mers
2. 0.0324 % of ANNNNAAN 8-mers
3. 0.024 % of ANNNNAAN 8-mers
4. 0.0591 % of ANNNNAAN 8-mers
5. 0.0389 % of ANNNNAAN 8-mers
6. 1.36 % of ANNNNAAN 8-mers
7. 0.378 % of ANNNNAAN 8-mers
8. 0.0282 % of ANNNNAAN 8-mers

Hey, can you go through the list below and give me binding signal for every item?
1. ACGTAAAG
2. AGGAGAAC

Ans:
1: 0.0416 % of ANNNNAAN 8-mers; 2: 0.0275 % of ANNNNAAN 8-mers

Hey, can you go through the list below and give me binding signal for every item?
1. AGTCCAAC
2. AGAGGAAG
3. ATAGAAAC
4. ATTCAAAA
5. ACTGTAAA
6. AAGCAAAC

Ans:
1. 0.0114 % of ANNNNAAN 8-mers
2. 0.0358 % of ANNNNAAN 8-mers
3. 0.0328 % of ANNNNAAN 8-mers
4. 0.365 % of ANNNNAAN 8-mers
5. 0.0404 % of ANNNNAAN 8-mers
6. 0.0606 % of ANNNNAAN 8-mers

Hey, can you go through the list below and give me binding signal for every item?
1. AAGTTAAA
2. ATACTAAG
3. AGAGTAAT
4. AGTCAAAT

Ans:
0.0858 % of ANNNNAAN 8-mers
0.045 % of ANNNNAAN 8-mers
0.0648 % of ANNNNAAN 8-mers
0.566 % of ANNNNAAN 8-mers

Hey, can you go through the list below and give me binding signal for every item?
1. AGTCGAAG
2. AAGTTAAG
3. ACAGGAAG

Ans:
["0.0305 % of ANNNNAAN 8-mers", "0.0568 % of ANNNNAAN 8-mers", "0.0343 % of ANNNNAAN 8-mers"]

Hey, can you go through the list below and give me binding signal for every item?
1. ATGTCAAT
2. ATATTAAG
3. ACATTAAC

Ans:
1: 0.0828 % of ANNNNAAN 8-mers; 2: 0.196 % of ANNNNAAN 8-mers; 3: 0.0984 % of ANNNNAAN 8-mers

Hey, can you go through the list below and give me binding signal for every item?
1. AGGTAAAA
2. ATATCAAG
3. ACCTGAAC
4. AACGGAAG
5. ACGTGAAT
6. ATCAAAAA

Ans:
["0.129 % of ANNNNAAN 8-mers", "0.0641 % of ANNNNAAN 8-mers", "0.021 % of ANNNNAAN 8-mers", "0.0168 % of ANNNNAAN 8-mers", "0.0732 % of ANNNNAAN 8-mers", "0.061 % of ANNNNAAN 8-mers"]

====

Please provide measured binding signal for the entries that follow.
Biological target: POU2 (OCT2 POU domain);BOB1 (OBF1, OCA-B) (human;human, UniProt P09086;Q16633 175-386;1-256, |)
Sequence 1: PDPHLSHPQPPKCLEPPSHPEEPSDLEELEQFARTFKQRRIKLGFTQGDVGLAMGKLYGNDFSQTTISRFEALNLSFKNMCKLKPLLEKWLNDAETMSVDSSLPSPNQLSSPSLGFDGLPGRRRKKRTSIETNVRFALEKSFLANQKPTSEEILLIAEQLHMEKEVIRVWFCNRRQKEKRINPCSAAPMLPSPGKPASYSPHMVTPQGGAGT
Sequence 2: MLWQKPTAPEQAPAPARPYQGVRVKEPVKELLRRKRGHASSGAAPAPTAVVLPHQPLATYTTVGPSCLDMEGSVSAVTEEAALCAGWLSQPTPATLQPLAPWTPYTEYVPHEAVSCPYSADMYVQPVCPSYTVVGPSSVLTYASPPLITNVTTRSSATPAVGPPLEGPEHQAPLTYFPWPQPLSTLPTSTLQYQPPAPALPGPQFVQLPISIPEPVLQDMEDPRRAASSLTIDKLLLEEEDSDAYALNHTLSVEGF
Assay: EMSA-SELEX-seq; with BOB1 (ternary complex band); 20 mM Tris-HCl pH 7.6, 140 mM NaCl, 10% glycerol, 0.5 mM EDTA, 0.05% Triton X-100, 0.1 mg/mL BSA, 0.1 mg/mL poly(dI-dC), 5 mM DTT, room temperature, 20 min; high values mean tight binding
Settings: protein: recombinant;recombinant; copies: 1;1; dsDNA, one strand shown

Example sequences with recorded binding signal:
INSERT INTO measurements (sequence_code, result) VALUES
  ('AAATAAAG', '0.171 % of ANNNNAAN 8-mers'),
  ('ACCTCAAC', '0.0107 % of ANNNNAAN 8-mers'),
  ('ACTAGAAC', '0.0149 % of ANNNNAAN 8-mers'),
  ('AGGCTAAG', '0.0446 % of ANNNNAAN 8-mers'),
  ('AGCAGAAA', '0.0281 % of ANNNNAAN 8-mers');

Hey, can you go through the list below and give me binding signal for every item?
1. ATGACAAT
2. ATGGTAAG

Ans:
1. 0.0471 % of ANNNNAAN 8-mers
2. 0.09 % of ANNNNAAN 8-mers

====

Target: POU2 (OCT2 POU domain);BOB1 (OBF1, OCA-B) (human;human, UniProt P09086;Q16633 175-386;1-256, |)
Sequence 1: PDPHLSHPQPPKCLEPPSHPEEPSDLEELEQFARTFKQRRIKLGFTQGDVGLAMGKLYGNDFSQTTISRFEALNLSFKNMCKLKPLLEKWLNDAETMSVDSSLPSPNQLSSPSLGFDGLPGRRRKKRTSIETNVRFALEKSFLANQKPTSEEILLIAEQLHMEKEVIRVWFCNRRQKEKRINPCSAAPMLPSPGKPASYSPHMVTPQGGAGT
Sequence 2: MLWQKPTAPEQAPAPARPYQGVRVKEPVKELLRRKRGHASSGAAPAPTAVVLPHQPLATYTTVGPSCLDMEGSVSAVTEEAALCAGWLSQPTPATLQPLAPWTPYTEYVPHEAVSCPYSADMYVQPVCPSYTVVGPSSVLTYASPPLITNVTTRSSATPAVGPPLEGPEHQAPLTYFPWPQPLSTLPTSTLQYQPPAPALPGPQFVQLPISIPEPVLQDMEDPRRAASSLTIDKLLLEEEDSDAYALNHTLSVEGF
Test: EMSA-SELEX-seq; with BOB1 (ternary complex band); 20 mM Tris-HCl pH 7.6, 140 mM NaCl, 10% glycerol, 0.5 mM EDTA, 0.05% Triton X-100, 0.1 mg/mL BSA, 0.1 mg/mL poly(dI-dC), 5 mM DTT, room temperature, 20 min; high values mean tight binding
Conditions: protein: recombinant;recombinant; copies: 1;1; dsDNA, one strand shown
Please provide measured binding signal for the entries that follow.

Example sequences with recorded binding signal:
INSERT INTO results (sequence_code, result) VALUES
  ('AAATTAAA', '0.217 % of ANNNNAAN 8-mers'),
  ('ATCGGAAA', '0.0528 % of ANNNNAAN 8-mers'),
  ('ACGCCAAT', '0.0256 % of ANNNNAAN 8-mers'),
  ('ACCCGAAA', '0.014 % of ANNNNAAN 8-mers'),
  ('ATATAAAC', '0.0652 % of ANNNNAAN 8-mers'),
  ('ATGGAAAC', '0.066 % of ANNNNAAN 8-mers'),
  ('AAGTCAAT', '0.0677 % of ANNNNAAN 8-mers'),
  ('ATGTCAAC', '0.0215 % of ANNNNAAN 8-mers'),
  ('ACTTGAAC', '0.0314 % of ANNNNAAN 8-mers'),
  ('AATCGAAG', '0.0495 % of ANNNNAAN 8-mers');

Hey, can you go through the list below and give me binding signal for every item?
1. AGTCCAAG
2. AATCTAAT

Ans:
["0.0215 % of ANNNNAAN 8-mers", "0.0949 % of ANNNNAAN 8-mers"]

Hey, can you go through the list below and give me binding signal for every item?
1. ATGAAAAC
2. AATTAAAC
3. AGATTAAG
4. AGTTTAAT
5. ATGAAAAA
6. ATCAGAAT

Ans:
["0.0586 % of ANNNNAAN 8-mers", "0.0966 % of ANNNNAAN 8-mers", "0.0619 % of ANNNNAAN 8-mers", "0.111 % of ANNNNAAN 8-mers", "0.121 % of ANNNNAAN 8-mers", "0.0784 % of ANNNNAAN 8-mers"]

Hey, can you go through the list below and give me binding signal for every item?
1. ATTTAAAC
2. ACTATAAA
3. ATAGCAAT

Ans:
["0.109 % of ANNNNAAN 8-mers", "0.0421 % of ANNNNAAN 8-mers", "0.0487 % of ANNNNAAN 8-mers"]
